system: short-necked clam (Ruditapes philippinarum); assay: Biological activity of short-necked clam (aqueduct extension score) in aqueous mineral solutions; assay type: in vivo; details: mineral 1.5 w/v %; saccharide 1 w/v %; total of 18 clams, 16 h
Judgment score for biological activity reference

COMPOUND	OBSERVED
OC[C@H]1O[C@H](O[C@H]2[C@H](O)[C@@H](O)C(O)O[C@@H]2CO)[C@H](O)[C@@H](O)[C@@H]1O (mixture of isomers)	15
OC[C@@H](O)[C@@H](O[C@H]1O[C@H](CO)[C@@H](O)[C@H](O)[C@H]1O)[C@H](O)[C@@H](O)CO	20
OC[C@H]1O[C@H](O[C@H]2O[C@H](CO)[C@@H](O)[C@H](O)[C@H]2O)[C@H](O)[C@@H](O)[C@@H]1O	44

// next item, Judgment score for biological activity requested
What does the record list as Judgment score for biological activity for OC[C@H]1O[C@@](CO)(O[C@H]2O[C@H](CO)[C@@H](O)[C@H](O)[C@H]2O)[C@@H](O)[C@@H]1O ?
16
